- System: SK-OV-3
- test description: Cell growth in soft agar culture (alamarBlue)
- settings: Homo sapiens, SK-OV-3, 168 h, read-out: IC50 (uM) Soft agar
reported metric: IC50

What value of measured IC50 is listed for Cc1cc(/C=C/c2ccc3cc(N(C)C)ccc3[n+]2C)c(C)n1-c1ccccc1 [Example 1, Pyrvinium Phosphate] ? 0.03 to 0.1 µM

----------
- System: HT29
- test description: Cell growth in liquid culture (alamarBlue)
- settings: Homo sapiens, HT-29, 72 h, read-out: IC50 (uM) Liquid culture
reported metric: IC50

Recorded IC50 for Cc1cc(/C=C/c2ccc3cc(N(C)C)ccc3[n+]2C)c(C)n1-c1ccccc1 [Example 1, Pyrvinium Phosphate] , please? > 1 µM

----------
- Tested on: OVCAR-8
- test description: Cell growth in liquid culture (alamarBlue)
- settings: Homo sapiens, OVCAR-8, 72 h, read-out: IC50 (uM) Liquid culture
reported metric: IC50

May I ask what IC50 has been recorded for Cc1cc(/C=C/c2ccc3cc(N(C)C)ccc3[n+]2C)c(C)n1-c1ccccc1 [Example 1, Pyrvinium Phosphate] ? 0.1 to 0.3 µM

----------
- System: HCT116-P53(−)
- test description: Cell growth in soft agar culture (alamarBlue)
- settings: 168 h, read-out: IC50 (uM) Soft agar
reported metric: IC50

Which IC50 is listed for Cc1cc(/C=C/c2ccc3cc(N(C)C)ccc3[n+]2C)c(C)n1-c1ccccc1 [Example 1, Pyrvinium Phosphate] ? 0.1 to 0.3 µM

----------
- Test system: OVCAR-1
- test description: Cell growth in liquid culture (alamarBlue)
- settings: OVCAR1, 72 h, read-out: IC50 (uM) Liquid culture
reported metric: IC50

Looking for the measured IC50 of Cc1cc(/C=C/c2ccc3cc(N(C)C)ccc3[n+]2C)c(C)n1-c1ccccc1 [Example 1, Pyrvinium Phosphate] , can you help? 0.03 to 0.1 µM
